Documented IC50 across a set of compounds
# Tested on: L6
# test details: Cytotoxicity against rat L6 cells after 72 hrs by Alamar Blue assay
# Assay type: cell-based
# condition parameters: L6, 72 h

# annotated cases, reported IC50 shown
compound: C[C@@H]1CC[C@H]2[C@@H](C)C(=O)O[C@@H]3O[C@@]4(C)CC[C@@H]1[C@]32OO4
IC50: 150 µM
//
compound: N=C(Nc1cccc(-c2cc(Cl)cc(-c3cccc(NC(=N)c4ccccc4)c3)c2)c1)c1ccccc1
IC50: 4.1 µM
//
compound: CCN(CC)CCCC(C)Nc1ccnc2cc(Cl)ccc12 (stereo not given)
IC50: 76.5 µM

Could you share which IC50 value was measured for `N=C(N)c1cncc(-c2cccc(-c3cncc(C(=N)N)c3)c2)c1` ? > 150 µM

Could you share which IC50 value was measured for `CC(=O)O.N=C(N)c1ccc(-c2cccc(-c3ccc(C(=N)N)cn3)c2)nc1` ? > 150 µM
